Assay: protein stability index of a GFP-peptide fusion (yeast GPS) (PSI 1-4); higher = more stable; sorted into four equal gates, so the index is relative within each strain
Conditions: san1∆
Observation Type: protein stability index
Give bare numbers.

Worked cases, answers included:
[
  {
    "Item Sequence": "QRDFRKHGAVHLSTYLK [RPL21A]",
    "Experimental Result": 2.48
  },
  {
    "Item Sequence": "SLKKVDEIKAQRKEIKD [SMC4]",
    "Experimental Result": 3.29
  },
  {
    "Item Sequence": "VHVIHFQHADNSSMRYG [AAR2]",
    "Experimental Result": 2.32
  },
  {
    "Item Sequence": "MLASQANGGSTIISPHK [DSN1]",
    "Experimental Result": 3.45
  },
  {
    "Item Sequence": "IARLYSCISISDIISML [RRI2]",
    "Experimental Result": 1.24
  }
]

Provide each entry's protein stability index from the list below.
1. SSTLGIDLEDIKEELTK [PCI8]
2. DQKETKKGESEKDASGK [YOR098C/NUP1]

Result:
1. 3.17
2. 3.49

---

I'd be grateful if you could share measured protein stability index for these entries.
Experiment: protein stability index of a GFP-peptide fusion (yeast GPS) (PSI 1-4); higher = more stable; sorted into four equal gates, so the index is relative within each strain
Conditions: pdr5∆
Answers are plain numbers.

Worked cases, answers included:
[
  {
    "Item Sequence": "QGAKTYLERTLDTFIKI [PRE5]",
    "protein stability index": 3.18
  },
  {
    "Item Sequence": "KLSQMILDKIFYGVLDQ [RPN6]",
    "protein stability index": 2.99
  },
  {
    "Item Sequence": "SKLSLSRTDAVRCKDCG [RPC10]",
    "protein stability index": 1.9
  },
  {
    "Item Sequence": "ASLALAHVFVGTCNGDI [RPN1]",
    "protein stability index": 2.61
  },
  {
    "Item Sequence": "EKASGFEDSMQFKKLTH [PRP8]",
    "protein stability index": 3.12
  }
]

Provide each entry's protein stability index from the list below.
1. RRADVKTATVKINKKLN [RPL38]
2. NEDMVRRANFYKENEAM [SNF12]

Result:
[1.84, 3.48]

Provide each entry's protein stability index from the list below.
1. RVNNPNVSLIKIEGVAT [RPL33A]
2. NLFPLKPKMLPIPSKPT [SRP68]
3. AETKSYDSRGVGEMKLL [YLR335W/NUP2]
4. GAINVANCQRQLTEFWT [NNF1]
5. GSRVLIFSQMSRLLDIL [ISW2]
6. GHSLGEYAALASLADVM [FAS1]

Result:
1. 2.62
2. 2.55
3. 2.1
4. 2.76
5. 3.46
6. 2.29

---

I'd be grateful if you could share measured protein stability index for these entries.
Experiment: protein stability index of a GFP-peptide fusion (yeast GPS) (PSI 1-4); higher = more stable; sorted into four equal gates, so the index is relative within each strain
Conditions: san1∆
Answers are plain numbers.

Worked cases, answers included:
[
  {
    "Item Sequence": "VVDGTVVSCSQHGFEVQ [RPB7]",
    "Experimental Result": 3.13
  },
  {
    "Item Sequence": "NPVTLNEDSKAFHTAVL [NUT1]",
    "Experimental Result": 2.82
  }
]

Provide each entry's protein stability index from the list below.
1. NNSALSNVNSDIYFKLK [RPT3]
2. GIFEKAKAKAVTSKVRN [YMR153W/NUP53]
3. KEECQIEDDGIIESHLI [CSN9]
4. RAYMRPLGVILTFVSVD [SCL1]
5. RNNVANKQPRNESFNRR [YAR002W/NUP60]

Result:
1. 3.27
2. 2.51
3. 3.19
4. 2.05
5. 2.31

---

Assay: protein stability index of a GFP-peptide fusion (yeast GPS) (PSI 1-4); higher = more stable; sorted into four equal gates, so the index is relative within each strain
Details: san1∆
Criterion: protein stability index meeting or surpassing 3. Met: Fulfilled. Not met: Not fulfilled.

Completed entries (count: 2):
[
  {
    "Item Sequence": "HEVEEILNELQPNARAL [SMC1]",
    "Answer Label": "Fulfilled"
  },
  {
    "Item Sequence": "VAAAGITASTLLYADSL [CYT1]",
    "Answer Label": "Not fulfilled"
  }
]

Query: Confirm if protein stability index reported for the sequence LSSIEASLKIKNATDLQ [SMC3] is 3 or above.
Result: Not fulfilled

Query: What do we get for RMLSFEDISKATHLPKD [RPN9] ?
Result: Fulfilled

---

I'd be grateful if you could share measured protein stability index for these entries.
Experiment: protein stability index of a GFP-peptide fusion (yeast GPS) (PSI 1-4); higher = more stable; sorted into four equal gates, so the index is relative within each strain
Settings: doa10∆

[
  {
    "Item Sequence": "RSEDPAGLGKTNELWAR [YGR119C/NUP57]",
    "protein stability index": 2.82
  },
  {
    "Item Sequence": "LKLSMADYNGALLRVTK [POP4]",
    "protein stability index": 2.82
  },
  {
    "Item Sequence": "EKKPAAKKTSTSTDGKK [HTB1]",
    "protein stability index": 3.33
  },
  {
    "Item Sequence": "NKVQIMIATNVAARGLD [PRP28]",
    "protein stability index": 1.45
  },
  {
    "Item Sequence": "VAIDQDKITLHDEKTLA [SIR4]",
    "protein stability index": 2.01
  },
  {
    "Item Sequence": "VDAITRCYQPFELFDNK [SNU114]",
    "protein stability index": 3
  },
  {
    "Item Sequence": "VCIRPSVMMQDSPASNE [RPO31]",
    "protein stability index": 1.63
  },
  {
    "Item Sequence": "VQSKARYTVRTFGIRRN [RPL11A]",
    "protein stability index": 1.78
  },
  {
    "Item Sequence": "DNEDSDNLFGETESSVS [SWI3]",
    "protein stability index": 3.48
  },
  {
    "Item Sequence": "IAKLVAVLNVSPVYDVD [NUT1]",
    "protein stability index": 1.84
  }
]

Provide each entry's protein stability index from the list below.
1. EYEELKEKIEKLSKSAT [SMC1]
2. LGLKFDDLIAEENPIMQ [QCR7]

Result:
[3.33, 2.46]

Provide each entry's protein stability index from the list below.
1. ALLRVTKSKNKTLIGLQ [POP4]
2. VFALHKYKPTPLYVMDE [SMC4]
3. RTWYESFCGFLLYYIPS [YJR042W/NUP85]
4. PNVSDKYYLEESNVNDS [NUT1]

Result:
1: 2.71; 2: 2.6; 3: 1.88; 4: 3.2

Provide each entry's protein stability index from the list below.
1. IMELPGVYSDDELLSQL [SRP68]
2. LSFVDIVLSKAASALDE [SIR4]

Result:
[2.99, 1.84]

Provide each entry's protein stability index from the list below.
1. VVDHHVENELLQVDVDI [RRP42]
2. YIYSQETKSWINESAEN [MED1]
3. LPKLNLPKYQTIQYDPP [SNF5]
4. AVEKTLALGCHFQDQKN [POP7]
5. IPYGPDFDNIEFKKIPR [SEC65]

Result:
3.4
2.58
2.53
2.42
3.21

---

I'd be grateful if you could share measured protein stability index for these entries.
Experiment: protein stability index of a GFP-peptide fusion (yeast GPS) (PSI 1-4); higher = more stable; sorted into four equal gates, so the index is relative within each strain
Conditions: ubr1∆
One number for each entry.

Worked cases, answers included:
[
  {
    "Item Sequence": "DDVISNAGTNDNSFNEL [MCD1]",
    "protein stability index": 3.44
  },
  {
    "Item Sequence": "GKILTIKQQQQQQQQQN [YML103C/NUP188]",
    "protein stability index": 2.96
  },
  {
    "Item Sequence": "SNSMDRSSSASNEFVPN [SWI1]",
    "protein stability index": 2.69
  },
  {
    "Item Sequence": "RKHRNAQFAGRASIEYY [DIS3]",
    "protein stability index": 2.99
  },
  {
    "Item Sequence": "LANNVESKLRDDLERLK [RPS18A]",
    "protein stability index": 3.41
  },
  {
    "Item Sequence": "DTFRWVGKKSAPEKDIW [RPO31]",
    "protein stability index": 3.15
  }
]

Query: What protein stability index value was documented for this sequence, IRAELLNDRKVLFAAYK [RPB11] ?
Result: 2.23

Hello, the source for this data is the supplement of paper PMC9732359, in case you need it.
